Hey, just so you know, these numbers are from the RepoRT retention time repository.

# Assay details: Waters ACQUITY UPLC BEH C18, 100 × 2.1 mm, 1.7 µm, 40 °C, 0.3 to 0.4 mL/min, estimated dead time 0.63 min; A: water + 0.1% formic acid; B: methanol + 0.1% formic acid; gradient (min/%B) 0/0.5 0.1/0.5 10/80 10.1/99.5 12/99.5
# Experimental conditions: stereoisomer not certain
Endpoint: LC retention time (min)
Hi! Could you send only the number? It should be in min, unit omitted.

The examples below pair each entry with its known result.
COC(=O)C1=C2Nc3ccccc3C23CCN2C4OC56C7CC4(CN5c4c(OC)cccc4C64CCN5CCC6OCCC6(C7)C54)C4OCCC4(C1)C23 (configuration not stated) ... 5.79
CCCC1CCCCN1 (configuration not stated) ... 2.78
O=c1cc(-c2ccc(O)c(O)c2)oc2c(C3OC(CO)C(O)C(O)C3O)c(O)c(C3OC(CO)C(O)C(O)C3O)c(O)c12 (configuration not stated) ... 3.1
CC1OC(OC2C(O)COC(OC3C(C)OC(OC4C(OC(=O)C56CCC(C)(C)CC5C5=CCC7C8(C)CCC(OC9OC(CO)C(O)C(O)C9O)C(C)(C)C8CCC7(C)C5(C)CC6O)OCC(O)C4O)C(O)C3O)C2O)C(O)C(O)C1O (configuration not stated) ... 6.12
O=C(O)CC(=O)OCC1OC(Oc2c(-c3cc(O)c(O)cc3O)oc3cc(O)cc(O)c3c2=O)C(O)C(O)C1O (configuration not stated) ... 3.88

Exercise: For the compound shown here, COc1cc2ccc(=O)oc2cc1OC1OC(CO)C(O)C(O)C1O (configuration not stated) , give the reported LC retention time.
Solution: 3.11

Exercise: Next entry: COc1cc(C=CC(=O)OC2C(O)CC(O)(C(=O)O)CC2O)ccc1O (configuration not stated)
Solution: 3.74

###

# Assay details: Waters ACQUITY UPLC BEH C18, 100 × 2.1 mm, 1.7 µm, 40 °C, 0.3 to 0.4 mL/min, estimated dead time 0.63 min; A: water + 0.1% formic acid; B: methanol + 0.1% formic acid; gradient (min/%B) 0/0.5 0.1/0.5 10/80 10.1/99.5 12/99.5
# Experimental conditions: stereoisomer not certain
Endpoint: LC retention time (min)
Please reply with the bare figure in min and do not write the unit itself.

Example compounds with recorded LC retention time:
CC(CSCC(NC(=O)CCC(N)C(=O)O)C(=O)O)C(=O)O (stereo not given) ... 2.39
CC1(C)CCC2(C(=O)OC3OC(CO)C(O)C(O)C3O)C(O)CC3(C)C(=CCC4C5(C)CCC(OC6OCC(O)C(OC7OC(CO)C(O)C(O)C7O)C6O)C(C)(C)C5CCC43C)C2C1 (stereo not given) ... 6.06
NC(CCC(=O)NC(CS)C(=O)NCC(=O)O)C(=O)O (stereo not given) ... 1.52
COc1c(CC=C(C)C)c(O)cc2oc(=O)c(-c3ccc(O)cc3O)cc12 ... 7.01

Pending compound:
Exercise: Endpoint output: LC retention time of COc1cc2c(cc1OC)C(C)=NCC2 . Value?
Solution: 2.93

###

# LC retention time annotations
# Assay details: Waters ACQUITY UPLC BEH C18, 100 × 2.1 mm, 1.7 µm, 40 °C, 0.3 to 0.4 mL/min, estimated dead time 0.63 min; A: water + 0.1% formic acid; B: methanol + 0.1% formic acid; gradient (min/%B) 0/0.5 0.1/0.5 10/80 10.1/99.5 12/99.5
# Experimental conditions: stereoisomer not certain
Provide a numeric answer, followed by its unit.

O=c1cc(-c2ccc(O)cc2)oc2cc(O)c(C3OCC(O)C(O)C3OC3OC(CO)C(O)C(O)C3O)c(O)c12 (centres undefined) ... 4.21 min
COc1cc(CC(CO)C(CO)Cc2ccc(O)c(OC)c2)ccc1O (centres undefined) ... 4.76 min
CC1OC(Oc2cc(O)c3c(=O)c(OC4OC(COC5OC(CO)C(O)C(O)C5O)C(O)C(O)C4O)c(-c4ccc(O)cc4)oc3c2)C(O)C(O)C1O (centres undefined) ... 3.62 min

Now let's try a different one.
Exercise: # query: LC retention time of entry CN1CCc2cc3c(cc2C(=O)Cc2ccc4c(c2C1)OCO4)OCO3
Solution: 4.36 min

###

# Assay details: Waters ACQUITY UPLC BEH C18, 100 × 2.1 mm, 1.7 µm, 40 °C, 0.3 to 0.4 mL/min, estimated dead time 0.63 min; A: water + 0.1% formic acid; B: methanol + 0.1% formic acid; gradient (min/%B) 0/0.5 0.1/0.5 10/80 10.1/99.5 12/99.5
# Experimental conditions: stereoisomer not certain
Label yes (1) when LC retention time is at or above 4 min; otherwise label no (0).

Answered cases to consult:
Cc1nccc2c1[nH]c1ccccc12 ... no (0)
NC(Cc1ccc(O)cc1)C(=O)O (configuration not stated) ... no (0)
CC(CCC1(O)OC2CC3C4CC=C5CC(OC6OC(CO)C(O)C(OC7OC(CO)C(O)C(O)C7O)C6OC6OC(C)C(O)C(O)C6O)CCC5(C)C4CCC3(C)C2C1C)COC1OC(CO)C(O)C(O)C1O (configuration not stated) ... yes (1)
O=C1CC2OCC=C3CN4CCC56c7ccccc7N1C5C2C3CC46 (configuration not stated) ... no (0)
O=c1cc[nH]c2ccccc12 ... no (0)

Exercise: Hello, I need to know if CC(N)C(=O)NC(Cc1ccccc1)C(=O)O (configuration not stated) has measured LC retention time not below 4 min. Thanks!
Solution: no (0)

Exercise: Param item: COc1ccc(-c2coc3cc(OC4OC(COC(=O)CC(=O)O)C(O)C(O)C4O)c(OC)cc3c2=O)cc1 (configuration not stated)
Solution: yes (1)

Exercise: Request: CCCCCCCCCCCCCCCC(=O)OCC(O)COP(=O)([O-])OCC[N+](C)(C)C (configuration not stated)
Solution: yes (1)

Exercise: Please give the result for CCC(C)C(NC(=O)Cc1c[nH]c2ccccc12)C(=O)O (configuration not stated) too.
Solution: yes (1)

Exercise: Also CC(=O)OCC1OC(Oc2ccc3c(=O)c(-c4ccc(O)cc4)coc3c2)C(O)C(O)C1O (configuration not stated) ?
Solution: yes (1)

###

# Assay details: Waters ACQUITY UPLC BEH C18, 100 × 2.1 mm, 1.7 µm, 40 °C, 0.3 to 0.4 mL/min, estimated dead time 0.63 min; A: water + 0.1% formic acid; B: methanol + 0.1% formic acid; gradient (min/%B) 0/0.5 0.1/0.5 10/80 10.1/99.5 12/99.5
# Experimental conditions: stereoisomer not certain
Below is a list of entries, each paired with its recorded LC retention time value.
Numeric only. Scale: min

Example entries and their recorded answers appear below.
COc1cc(-c2cc(=O)c3c(O)cc(OC4OC(CO)C(O)C(O)C4OC4OC(C)C(O)C(O)C4O)cc3o2)cc(OC)c1O (stereo not drawn) ... 4.36
O=C(O)C(Cc1ccccc1)NC(=O)C1CCCN1 (stereo not drawn) ... 2.99
CC1=C(CCC(C)COC2OC(CO)C(O)C(O)C2OC2OC(C)C(O)C(O)C2O)OC2CC3C4CC=C5CC(O)CC(OC6OC(CO)C(O)C(O)C6O)C5(C)C4CCC3(C)C12 (stereo not drawn) ... 5.2
COc1cc2c(cc1OC)-c1c(C)c3ccc(OC)c(OC)c3c[n+]1CC2 ... 5.19
CCN1CC2(CO)CCC(OC)C34C5CC6C(OC)CC(O)(C5C6OC)C(O)(C(OC)C23)C14 (stereo not drawn) ... 3.67
C=C1CCCC2(C)CC3(O)OC(=O)C(C)=C3CC12 (stereo not drawn) ... 7.91
COc1ccc2c(c[n+](C)c3c4cc5c(cc4ccc23)OCO5)c1OC ... 5.3
CC(C)=CCCC(C)(OC1OC(COC2OCC(O)C(O)C2O)C(O)C(O)C1O)C1CCC2(C)C1C(O)CC1C3(C)CCC(OC4OC(CO)C(O)C(O)C4OC4OC(CO)C(O)C(O)C4O)C(C)(C)C3CCC12C (stereo not drawn) ... 6.14
CCN1CC2(COC)CCC(O)C34C5CC6C(OC)CC(O)(C(CC23)C14)C5C6O (stereo not drawn) ... 2.91
CC(=O)NC(CC(C)C)C(=O)O (stereo not drawn) ... 3.81

Attention now turns to another entry.
Exercise: # lookup: LC retention time of CC(=O)OC1CCC2(C)C(=CCC3C2CCC2(C)C3CC3OC4(CCC(C)CN4)C(C)C32)C1 (stereo not drawn)
Solution: 8.16

###

Listing of recorded LC retention time by entry.
# Assay details: Waters ACQUITY UPLC BEH C18, 100 × 2.1 mm, 1.7 µm, 40 °C, 0.3 to 0.4 mL/min, estimated dead time 0.63 min; A: water + 0.1% formic acid; B: methanol + 0.1% formic acid; gradient (min/%B) 0/0.5 0.1/0.5 10/80 10.1/99.5 12/99.5
# Experimental conditions: stereoisomer not certain
Lab book: enter the figure in min, no units written.

Below: 5 molecules and their reported LC retention time.
CC1OC(Oc2cc(O)c3c(=O)c(OC4OC(CO)C(O)C(O)C4OC4OC(CO)C(O)C(O)C4O)c(-c4ccc(O)c(O)c4)oc3c2)C(O)C(O)C1O (stereo not drawn) ... 2.95
CC1OC(OC2C(O)C(C)OC(OCC3OC(Oc4c(-c5ccc(O)cc5)oc5cc(O)cc(O)c5c4=O)C(O)C(O)C3O)C2O)C(O)C(O)C1O (stereo not drawn) ... 3.98
O=C(C=Cc1ccc(O)cc1)NCCCCN(CCCNC(=O)C=Cc1ccc(O)cc1)C(=O)C=Cc1ccc(O)cc1 ... 5.62
CCC(C)=CCCC(C)(OC1OC(COC2OCC(O)C(O)C2O)C(O)C(O)C1O)C1CCC2(C)C3CCC4C(C)(C)C(OC5OC(CO)C(O)C(O)C5OC5OC(CO)C(O)C(O)C5O)CCC4(C)C3CC(O)C12 (stereo not drawn) ... 6.19
CC=C1CC(C)C(O)(CO)C(=O)OCC2=CCN3CCC(OC1=O)C23 (stereo not drawn) ... 3.23

Exercise: Looking for the measured LC retention time of Nc1[nH]c(=O)[nH]c(=O)c1OC1OC(CO)C(O)C(O)C1O (stereo not drawn) , can you help?
Solution: 2.01

Exercise: What about COC(=O)C1(O)CC23CCCN4CCC5(c6ccc7c(c6NC15CC2)OCO7)C43 (stereo not drawn) ?
Solution: 3.61

Exercise: Input C=CC1C(OC2OC(CO)C(O)C(O)C2O)OC=C(C(=O)OC)C1CC1NCCc2c1[nH]c1ccccc21 (stereo not drawn)
Solution: 4.36

Exercise: Would you kindly repeat that for CC1OC(OCC2OC(Oc3cc(O)c4c(c3)OC(c3ccc(O)c(O)c3)CC4=O)C(O)C(O)C2O)C(O)C(O)C1O (stereo not drawn) ?
Solution: 3.92

Exercise: // same read-out, input: CCC(C)C(N)C(=O)NC(C(=O)O)C(C)C (stereo not drawn)
Solution: 2.55

Exercise: // next record COc1c(CC=C(C)C)c(O)cc2oc(-c3ccc(O)cc3O)cc12
Solution: 8.35

Exercise: Another: C=CC12CN(C)C3C4COC(CC41)C1(C(=O)N(OC)c4ccccc41)C32 (stereo not drawn)
Solution: 4.05
